# Tested on: T47D cells
# Test Method Notes: Cellular growth inhibition assay for T47D cells
# Type: cell-based
# Run Parameters: Homo sapiens, 72 hours, CellTiter-Glo 2.0
Below, each entry is listed alongside its reported GI50.

>  <Molecule>
CCc1cnn2c(NCc3ccc(N4CCC(N5CCN(C6CN(c7ncc(C(=O)N[C@H]8C(C)(C)[C@H](Oc9ccc(C#N)c(Cl)c9)C8(C)C)cn7)C6)CC5)CC4)nc3)cc(N3CCCC[C@H]3CCO)nc12

>  <GI50>
< 500 nM

$$$$
>  <Molecule>
CC1(C)[C@H](NC(=O)c2cnc(N3CCC(OCCN4C/C=C/CCOc5cccc(c5)-c5ccnc(n5)Nc5cccc(c5)C4)CC3)nc2)C(C)(C)[C@H]1Oc1ccc(C#N)c(Cl)c1

>  <GI50>
500 to 1500 nM

$$$$
>  <Molecule>
CCc1cnn2c(NCc3ccc(OCCCN4CCN(CC5CCN(c6ccc(C(=O)N[C@H]7C(C)(C)[C@H](Oc8ccc(C#N)c(Cl)c8)C7(C)C)cn6)CC5)CC4)nc3)cc(N3CCCC[C@@H]3CCO)nc12

>  <GI50>
< 500 nM

$$$$
>  <Molecule>
CC1(C)[C@H](NC(=O)c2cnc(N3CCC(OCCOCCOCCOCCN4C/C=C/CCOc5cccc(c5)-c5ccnc(n5)Nc5cccc(c5)C4)CC3)nc2)C(C)(C)[C@H]1Oc1ccc(C#N)c(Cl)c1

>  <GI50>
< 500 nM

$$$$
>  <Molecule>
CCc1cnn2c(NCc3ccc(OCCC4CCN(CC5CCN(c6ncc(C(=O)N[C@H]7C(C)(C)[C@H](Oc8ccc(C#N)c(Cl)c8)C7(C)C)cn6)CC5)CC4)nc3)cc(N3CCCC[C@H]3CCO)nc12

>  <GI50>
< 500 nM

$$$$

In: Annotate the molecule CCc1cnn2c(NCc3ccc(OCCCCN4CCN(CC5CCN(c6ncc(C(=O)N[C@H]7C(C)(C)[C@H](Oc8ccc(C#N)c(Cl)c8)C7(C)C)cn6)CC5)CC4)nc3)cc(N3CCCC(F)(F)C3)nc12 with its measured GI50.
Out: 500 to 1500 nM

In: Annotate the molecule COc1cc(F)ccc1-c1ccnc2[nH]c(C3CCN(CCOCCOC4CCN(c5ncc(C(=O)N[C@H]6C(C)(C)[C@H](Oc7ccc(C#N)c(Cl)c7)C6(C)C)cn5)CC4)CC3)cc12 with its measured GI50.
Out: 1500 to 3000 nM

All values here come from patent US20260159520A1.
